{"columns": ["compound", "melting point / °C"],
 "data": [
  ["Cc1cc(C)cc(Oc2cccc(F)c2S(=O)(=O)N2CCNCC2)c1.Cl [Example 1-58]", 204],
  ["CC(=O)c1cccc(Oc2ccc([N+](=O)[O-])cc2S(=O)(=O)N2CCNCC2)c1.Cl [Example 1-31]", 77]
]}

====

Counter-ions that a name gives are not always drawn.
Catalogue of melting point readings, one per entry.

{"columns": ["compound", "melting point"],
 "data": [
  ["Cc1cc(C)cc(Oc2ccc(S(=O)(=O)N3CCNCC3)cc2S(=O)(=O)N2CCNCC2)c1.Cl.Cl", "214 to 220 °C"],
  ["Cc1cc(C)cc(Oc2ccc(I)cc2S(=O)(=O)N2CCNCC2)c1.Cl", "241 to 243 °C"],
  ["Cl.O=[N+]([O-])c1ccc(Oc2cc(F)cc(F)c2)c(S(=O)(=O)N2CCNCC2)c1", "273 to 274 °C"],
  ["Cl.N[C@H]1CCN(S(=O)(=O)c2cc([N+](=O)[O-])ccc2Oc2cc(Cl)cc(Cl)c2)C1", "256 to 258 °C"],
  ["Cc1cc(Oc2ccc([N+](=O)[O-])cc2S(=O)(=O)N2CCNCC2)cc(C(C)C)c1.Cl", "182 to 185 °C"],
  ["CCOC(=O)CCN1CCN(S(=O)(=O)c2cc([N+](=O)[O-])ccc2Sc2cc(Cl)cc(Cl)c2)CC1", "156 to 158 °C"],
  ["Cc1cc(C)cc(Oc2ccccc2S(=O)(=O)N2CCNCC2)c1.Cl", "205 to 207 °C"],
  ["Cc1cc(C)cc(Oc2ccc(C(=O)NCCC#N)cc2S(=O)(=O)N2CCNCC2)c1 (as salt: hydrochloride)", "101 °C"],
  ["Cc1cc(C)cc(Oc2ccc(S(C)(=O)=O)cc2S(=O)(=O)N2CCNCC2)c1.Cl", "267 to 268 °C"],
  ["Cl.O=[N+]([O-])c1ccc(Sc2cccc(F)c2)c(S(=O)(=O)N2CCNCC2)c1", "236 to 238 °C"],
  ["COC(=O)c1ccc(Oc2cc(C)cc(C)c2)c(S(=O)(=O)N2CCNCC2)c1 (as salt: hydrochloride)", "120 °C"],
  ["N#Cc1ccc(S(=O)(=O)c2cc(Cl)cc(Cl)c2)c(S(=O)(=O)N2CCNCC2)c1 (as salt: hydrochloride)", "258 °C"],
  ["Cl.O=[N+]([O-])c1ccc(Oc2ccccc2Cl)c(S(=O)(=O)N2CCNCC2)c1", "166 to 169 °C"],
  ["Cl.O=S(=O)(c1cc(Cl)ccc1Oc1cc(Cl)cc(Cl)c1)N1CCNCC1", "255 to 257 °C"],
  ["Cl.O=[N+]([O-])c1ccc(Oc2cc(Cl)cc(Cl)c2)c(S(=O)(=O)N2CCNCC2)c1", "260 to 264 °C"],
  ["Cl.N#Cc1ccc(Sc2cc(Cl)cc(Cl)c2)c(S(=O)(=O)N2CCCNCC2)c1", "277 to 278 °C"]
]}
